The reported numbers originate from patent US20100016421A1.

# Test system: T47D
# PROCEDURE DETAILS: MTT assay, T47D breast cancer cell line
# Format: cell-based, human
# EXPERIMENTAL CONDITIONS: Homo sapiens, MTT, read-out: IC50
# Protocol: The breast cancer cell lines shown in Table 2 were screened to determine the localization of the aryl hydrocarbon receptor (AhR) in accordance with the techniques discussed above. MTT assays were conducted to measure cell death on various breast cancer cell lines. The inhibitory concentration 50% were determined by MTT assay and following the NCI DTP in vitro testing procedures (http://dtp.nci.nih.gov/branches/btb/ivclsp.html). […]
RECORDED ENDPOINT: IC50 (nM)

1) Cc1c(F)c(N)c2c(=O)cc(-c3ccc(NC(=O)[C@@H](N)CCCCN)c(F)c3)oc2c1F: 14
